The origin of these recorded values is ChEMBL document CHEMBL1201862.

test system: T47D; assay: NCI tumour cell line growth inhibition, 48 h
Calls of active or inactive are those of the source. No stated cut-off is given here; in the data, active = GI50 up to about 1.1 µM and inactive = higher.
assay readout: GI50

molecule: CC1S/C(=N/c2nnc(-c3ccccc3)o2)NC1=O (stereo unspecified)
assay readout: GI50
test value: 61.1 µM (inactive)
//
molecule: Cn1c(N2CCCC2)c(C=O)c(=O)n(C)c1=O
assay readout: GI50
test value: > 100 µM (inactive)
//
molecule: Nc1n[nH]c2c1Cc1c(n(Cc3ccc(Cl)cc3)c3ccccc13)C(=O)N2
assay readout: GI50
test value: 12.3 µM (inactive)
//
molecule: COC(=O)c1c2c(cc3c1CC1(Cc4ccccc4C1)C3)CCC2
assay readout: GI50
test value: 15.8 µM (inactive)
//
molecule: CCOC1CN(C)/C(=N\c2cccc3ccccc23)S1 (stereo unspecified)
assay readout: GI50
test value: > 10 µM (inactive)
//
molecule: Cc1ccccc1S(=O)(=O)OC1NS(=O)(=O)c2ccccc21 (stereo unspecified)
assay readout: GI50
test value: > 100 µM (inactive)

###

The compounds listed here are annotated with their log10(GI50).
system: HCT-15
assay readout: log10(GI50) (log10 of the value in µM)

compound: C/C=C/[C@@H]1O[C@H](CC#C[Si](C)(C)C)[C@@]2(C=O)C(C)=CC[C@H](C(C)C)[C@@H]12
log10(GI50): 1.32
//
compound: CCCCC(CC)C(=O)Oc1ccc(C(=O)c2ccccc2)c(O)c1 (stereo not drawn)
log10(GI50): 1.60
//
compound: C=C1C(=O)O[C@@H]2C(=O)[C@@H](C)[C@@H]3C=CC(=O)[C@@]3(C)[C@@H](OC(=O)/C(C)=C\C)[C@H]12
log10(GI50): -0.55
//
compound: NC1=C(Cl)C(=O)c2c(O)ccc(O)c2C1=O
log10(GI50): 0.53
//
compound: c1ccc(P(=C2c3ccccc3-c3ccccc32)(c2ccccc2)c2ccccc2)cc1
log10(GI50): 0.70

###

tested on: DMS-114; test: NCI tumour cell line growth inhibition, 48 h
Activity calls are given as the source filed them. Cut-off read from the data, not from the text of the source: active = GI50 up to about 1.1 µM and inactive = higher.

compound: CC(=O)c1ccc(NC(=O)/C(Cc2ccccn2)=N/NC(=O)C[N+](C)(C)C)cc1
GI50: > 100 µM (inactive)
--
compound: O=C1CCC2CCOc3ccc(O)c1c32 (configuration not stated)
GI50: > 100 µM (inactive)
--
compound: O/N=C/c1ccc(O)c(O)c1
GI50: 14.7 µM (inactive)
--
compound: O=C(Cc1nc2ccccc2s1)Nc1cccc(C(F)(F)F)c1
GI50: 15.6 µM (inactive)
--
compound: COC(=O)C1=C(C)C(=O)C2(CCCCCC2C(=O)OC)C1 (configuration not stated)
GI50: > 100 µM (inactive)
--
compound: CC1(C)OC[C@H](C(=N)OCc2ccccc2)O1
GI50: > 100 µM (inactive)
--
compound: CC(C)OCN1COCN/C1=N/C#N
GI50: 58.6 µM (inactive)

###

system: HCT-15
Param label: returns t when GI50 < 20 µM, returns f otherwise, including exact equality.

compound: CN(CCO)CC(=O)CC(O)(C(F)(F)F)C(F)(F)F
class name: f
//
compound: CC(C)c1cccc(C(C)C)c1NC(=O)/C(CC(=O)CC(c1ccccc1)c1c(O)c2ccccc2oc1=O)=N/O (stereo not given)
class name: f
//
compound: Cc1nn(-c2ccccc2)c2nc3c(c(C)nn3-c3ccccc3)c(-c3ccc(C(F)(F)F)cc3)c12
class name: f
//
compound: O=C(/C=C/c1ccc(Oc2cc(C(=O)/C=C/c3ccc(O)cc3)c(O)cc2O)cc1)c1ccc(O)cc1O [RHUSCHALCONE II]
class name: t
//
compound: CC(C)C1(Cl)CCC2C3(C)CCCC(C)(C(=O)O)C3CC(Cl)C2(Cl)C1Cl (stereo not given)
class name: f
//
compound: O=c1cc(-c2ccc(O)cc2)oc2cc(O)cc(O)c12 [APIGENIN]
class name: f
//
compound: CC1CCCC2(CC[N+](C)(CCC[N+](C)(C)C)CC2)C1 (stereo not given)
class name: f
//
compound: Cc1c2cccc-2c2cc(O)c3ccccc3c2n1-c1ccc(N(C)C)cc1
class name: t
//
compound: N/C(=N\O)N/N=C/c1ncccc1O
class name: t
